Assay: Solubility of compound in FaSSIF at pH 6.5
Format: physicochemical

input.smiles	solubility (µg/mL)
CN1CC(COc2ccn3c(-c4cc(NCc5ccc(-c6cnn(C)c6)cc5)ncn4)cnc3c2)C1	97
Cn1cc(-c2ccc(CNc3cc(-c4cnc5cc(OCCO)ccn45)ncn3)cc2)cn1	13
Cn1cc(-c2ccc(CNc3cc(-c4cnc5cc(OCCCN6CCCC6)ccn45)ncn3)cc2)cn1	374
Cn1cc(-c2ccc(CNc3cc(-c4cnc5cc(OCCCN6CCC(C)(F)CC6)ccn45)ncn3)cc2)cn1	2
COc1ccn2c(-c3cc(NCc4ccc(-c5cnn(C)n5)cc4)ncn3)cnc2c1	4
Cn1cc(-c2ccc(CNc3cc(-c4cnc5cc(OCCN6CCC(C)(C#N)CC6)ccn45)ncn3)cc2)cn1	16
COCCOc1ccn2c(-c3cc(NCc4ccc(-c5cnn(C)c5)cc4)ncn3)cnc2c1	2
Cn1cc(-c2ccc(CNc3cc(-c4cnc5cc(OCCN6CCn7nncc7C6)ccn45)ncn3)cc2)cn1	10
Cn1cc(-c2ccc(CNc3cc(-c4cnc5cc(OCCCNC6COC6)ccn45)ncn3)cc2)cn1	16
Cc1nc(-c2ccc(CNc3cc(-c4cnc5cc(OCCN6CCC(=O)N(C)CC6)ccn45)ncn3)cc2)co1	10
